# target-desc: T1, human C3a (human, UniProt P01024 672-748)
# T1 construct: domain: C3a
# T1 sequence (P01024 672-748 limits assumed): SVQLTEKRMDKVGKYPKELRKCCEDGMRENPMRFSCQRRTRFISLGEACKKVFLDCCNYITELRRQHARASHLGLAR
# protocol: Octet analysis
reported-property: binding result

[
  {
    "binder": "BNJ345 (antibody, V domains shown, also called BNJ345 humanized anti-C5a antibody) VH: QVQLVQSGSELKKPGASVKVSCKASGYTFTDYSMDWVRQAPGQGLEWMGAIHLNTGYTNYNQKFKGRVTITADESTSTAYMELSSLRSEDTAVYYCARGFYDGYSPMDYWGQGTTVTVSS VL: DIVMTQSPDSLAVSLGERATINCRASESVDSYGNSFMHWYQQKPGQPPKLLIYRASNLESGVPDRFSGSGSGTDFTLTISSLQAEDVAVYYCQQSNEDPYTFGGGTKVEIKR",
    "reported-property": "binding result",
    "reported-result": "no binding"
  },
  {
    "binder": "BNJ350 (antibody, V domains shown, also called BNJ350 humanized anti-C5a antibody) VH: QVQLVQSGAEVKKPGASVKVSCKASGYTFTDYSMDWVRQAPGQGLEWVGAINPNSGGTNYSQKFKDRVTITADESTSTAYMELSSLRSEDTAVYYCARSGSYDGYYAMDYWGQGTTVTVSS VL: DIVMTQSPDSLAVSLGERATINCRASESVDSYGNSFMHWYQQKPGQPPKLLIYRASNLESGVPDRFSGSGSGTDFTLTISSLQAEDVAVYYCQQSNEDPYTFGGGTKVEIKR",
    "reported-property": "binding result",
    "reported-result": "no binding"
  }
]
